Measured Target: Opioid receptors; mu & kappa (Homo sapiens) (UniProt P41145+P35372)
Sequence (P35372 whole entry, looked up): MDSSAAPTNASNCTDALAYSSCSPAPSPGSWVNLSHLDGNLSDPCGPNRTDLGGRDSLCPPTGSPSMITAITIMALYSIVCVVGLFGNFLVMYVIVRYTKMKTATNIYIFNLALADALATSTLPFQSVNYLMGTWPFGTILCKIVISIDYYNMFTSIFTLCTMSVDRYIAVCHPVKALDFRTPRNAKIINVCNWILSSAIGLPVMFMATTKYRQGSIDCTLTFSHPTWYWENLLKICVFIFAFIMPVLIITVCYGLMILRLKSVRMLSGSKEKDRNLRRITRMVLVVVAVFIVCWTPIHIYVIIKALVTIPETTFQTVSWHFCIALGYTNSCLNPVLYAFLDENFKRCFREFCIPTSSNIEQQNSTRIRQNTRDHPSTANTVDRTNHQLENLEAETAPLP
Sequence (P41145 whole entry, looked up): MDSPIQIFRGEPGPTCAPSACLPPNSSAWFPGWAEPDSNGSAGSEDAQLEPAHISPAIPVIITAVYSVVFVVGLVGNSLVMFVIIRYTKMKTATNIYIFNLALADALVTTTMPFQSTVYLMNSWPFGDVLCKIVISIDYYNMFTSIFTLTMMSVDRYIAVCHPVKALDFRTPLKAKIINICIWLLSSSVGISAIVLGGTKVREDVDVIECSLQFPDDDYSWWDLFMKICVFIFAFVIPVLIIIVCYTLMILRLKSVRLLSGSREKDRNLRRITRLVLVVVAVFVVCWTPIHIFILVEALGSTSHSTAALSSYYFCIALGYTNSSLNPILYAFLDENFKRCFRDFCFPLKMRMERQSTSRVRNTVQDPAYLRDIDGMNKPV
Assay Method Text: Relative affinity for kappa 1 and mu opioid receptors
Type: protein assay
The label is satisfied for Ratio below 200 and not satisfied for Ratio equal to or exceeding 200.

Prompt: Given the entry `Cc1cc(O)cc(C)c1C[C@H](N)[C@H](O)C/C=C/[C@@H](O)[C@@H](Cc1ccccc1)C(=O)NCCc1ccccc1` , would its reported Ratio be below 200?
Completion: satisfied

Prompt: Given the entry `Cc1cc(O)cc(C)c1C[C@H](N)[C@@H](O)C/C=C/[C@H](O)[C@@H](Cc1ccccc1)C(=O)N[C@H](CO)Cc1ccccc1` , would its reported Ratio be below 200?
Completion: not satisfied

Prompt: Given the entry `Cc1cc(O)cc(C)c1C[C@H](N)[C@@H](O)C/C=C/[C@H](O)[C@@H](Cc1ccccc1)C(=O)O[C@@H](Cc1ccccc1)C(N)=O` , would its reported Ratio be below 200?
Completion: not satisfied

Prompt: Given the entry `Cc1cc(O)cc(C)c1C[C@H](N)[C@@H](O)C/C=C/[C@@H](O)[C@@H](Cc1ccccc1)C(=O)NCCc1ccccc1` , would its reported Ratio be below 200?
Completion: satisfied

Prompt: Given the entry `Cc1cc(O)cc(C)c1C[C@H](N)[C@@H](O)C/C=C/[C@H](O)[C@@H](Cc1ccccc1)C(=O)O[C@H](CO)Cc1ccccc1` , would its reported Ratio be below 200?
Completion: satisfied

Prompt: Given the entry `Cc1cc(O)cc(C)c1C[C@H](N)[C@@H](O)C/C=C/[C@H](O)[C@@H](Cc1ccccc1)C(=O)N[C@@H](Cc1ccccc1)C(N)=O` , would its reported Ratio be below 200?
Completion: satisfied
